Below, each entry is listed alongside its reported Bmax (MFI).
molecular target: cynomolgus BCMA on 293T-cynoBCMA cells (cynomolgus, UniProt Q02223 1-184 (human entry)); assay: FACS, 293T-cynoBCMA cells
Sequence (Q02223 other isoform, or with tags, fused parts or gaps): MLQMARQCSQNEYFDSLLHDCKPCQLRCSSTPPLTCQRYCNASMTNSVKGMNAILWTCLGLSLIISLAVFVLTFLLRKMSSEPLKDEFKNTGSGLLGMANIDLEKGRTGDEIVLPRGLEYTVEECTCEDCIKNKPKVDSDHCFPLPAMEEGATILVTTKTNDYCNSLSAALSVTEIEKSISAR
Just the number please, in MFI, no unit attached.

// below: answered binders
9H1 (antibody, V domains shown, chicken HybriFree-derived antibody; also called Antibody 44) VH: AVTLDESGGGLQTPGGALSLVCKGSGFTFSDYGMGWMRQAPGKGLQYVARINSAGSDTNYGSAVKGRATISRDDGQSTVRLQLSSLRAEDTGIYYCTRGGGGASIDGWGHGTEVIVSS VL: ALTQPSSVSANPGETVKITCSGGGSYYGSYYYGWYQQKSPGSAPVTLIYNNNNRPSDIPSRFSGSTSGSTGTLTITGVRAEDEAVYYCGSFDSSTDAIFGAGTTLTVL : 11400
10H1 (antibody, V domains shown, chicken HybriFree-derived antibody; also called Antibody 45) VH: AVTLDESGGGLQTPGGALSLVCKASGFTFSGYGMGWMRQAPGKGLEYVARINSAGSDTDYGAAVKGRATISRDNGQSTVRLQLNNLRAEDTATYFCTRGGGGASIDGWGHGTEVIVSS VL: ALTQPSSVSANPGETVKITCSGGGNYYGSYYYGWYQQKAPGSAPVTVIYNNNNRPSNIPSRFSGSKSGSTGTLTITGVQAEDEAVYFCGGFDSSSDAIFGAGTTLTVL : 21200

Form: binder = 10F4 (antibody, V domains shown, chicken HybriFree-derived antibody; also called Antibody 37) VH: AVTLDESGGGLQTPGGALSLVCKASGFTFSGYNMGWVRQAPGKGLEYVAGITYGTGSYTAYGAAVKGRATISRDNGQSTLRLQLNNLRAEDTATYYCARGGGLNSYGCSGANIDAWGHGTEVIVSS VL: ALTQPSSVSANLGGTVKITCSGGGNYFGSYYYGWYQQKAPGSAPVTVIYNNNNRPSDIPSRFSGSTSGSTSTLTISGVRAEDEAVYFCGGFDSSTDAIFGAGTTLTVL ; Bmax (MFI) = 12800
